Kindly supply the reported inhibition values for the records listed here.
Target: Receptor-type tyrosine-protein kinase FLT3 (Homo sapiens) (UniProt P36888);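 also: values are mean percent inhibition of FLT3 kinase activity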
Settings: at 1 µM
Answers are plain numbers, in %.

Examples from the recorded data:
CS(=O)(=O)CCNCc1coc(-c2ccc3ncnc(Nc4ccc(OCc5ccccc5)cc4)c3c2)c1 9.61
CC(C)(CO)CNC(=O)c1ccc2c(c1)/C(=N/Nc1ccc(S(N)(=O)=O)cc1)C(=O)N2 6.23
CNC(=O)c1cncc(/C=C/c2ccccc2Cl)c1 -0.38

Quick batch: inhibition for everything below.
1. O=S(=O)(CCNCc1ccc(-c2ccc3ncnc(Nc4ccc(OCc5cccc(F)c5)c(Cl)c4)c3c2)o1)c1ccccc1
2. Nc1nc(-c2ccc(F)cc2)c(-c2ccc3ncccc3n2)s1
3. Cc1ccc2c(-c3ccnc(Nc4ccccc4)n3)c(-c3ccc(F)cc3)nn2n1

1. 4.97
2. 3.75
3. 4.21

###

Target: 5'-AMP-activated protein kinase catalytic subunit alpha-1 (Homo sapiens);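 also: enzyme tested as the AMPK alpha1 beta1 gamma1 complex, values reported as mean percent inhibition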
Conditions: at 0.1 µM
Description: GSK_PKIS: AMPKA1 (A1B1G1) mean inhibition at 0.1 uM [Nanosyn]
Use 2% as the dividing line for inhibition, with the line itself on the fulfilled side and lower values as not fulfilled.

Illustrative cases are given below, each with its answer.
COC(=O)Nc1nc2ccc(Oc3ccc(NC(=O)Nc4cccc(Cl)c4)cc3)cc2[nH]1 not fulfilled
CCc1nn2ncccc2c1-c1ccnc(NC2CC2)n1 not fulfilled
CS(=O)(=O)CCNCc1coc(-c2ccc3ncnc(Nc4ccc(OCc5ccccc5)cc4)c3c2)c1 fulfilled
Nc1nc(-c2cccc(Cl)c2)c(-c2ccc3ncccc3n2)s1 fulfilled

Turning to the following molecule.
Check if inhibition >= 2% (inclusive). Item: Cc1ccc2c(-c3ccnc(Nc4ccccc4)n3)c(-c3ccc(F)cc3)nn2n1
fulfilled

###

Target: RAC-beta serine/threonine-protein kinase (Homo sapiens) (UniProt P31751)
Sequence (P31751 whole entry): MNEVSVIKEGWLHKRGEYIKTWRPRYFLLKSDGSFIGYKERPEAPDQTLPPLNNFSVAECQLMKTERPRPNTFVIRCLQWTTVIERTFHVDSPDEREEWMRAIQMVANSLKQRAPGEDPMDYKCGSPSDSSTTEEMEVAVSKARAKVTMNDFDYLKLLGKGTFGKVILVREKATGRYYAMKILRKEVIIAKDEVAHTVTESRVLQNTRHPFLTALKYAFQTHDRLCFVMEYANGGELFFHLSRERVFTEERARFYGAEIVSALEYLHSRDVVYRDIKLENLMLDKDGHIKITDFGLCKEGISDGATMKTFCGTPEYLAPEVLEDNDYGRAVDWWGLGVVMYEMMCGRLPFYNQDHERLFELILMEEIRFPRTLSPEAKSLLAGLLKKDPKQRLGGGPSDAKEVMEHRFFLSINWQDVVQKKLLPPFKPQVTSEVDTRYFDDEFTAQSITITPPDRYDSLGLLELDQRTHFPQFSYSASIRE
Details: at 1 µM
Description: GSK_PKIS: AKT2 mean inhibition at 1 uM [Nanosyn]
Kindly supply the reported inhibition values for the records listed here.

NC(=O)c1sc(-n2cnc3ccc(C(F)(F)F)cc32)cc1OCc1ccccc1Br 2.18%
Cc1cccc(Nc2ncc(-c3ccccc3)o2)c1 2.97%

Quick batch: inhibition for everything below.
1. FC(F)(F)c1cccc(-c2nn3ncccc3c2-c2ccnc(Nc3ccc4c(c3)OCCO4)n2)c1
2. CCN(CC)S(=O)(=O)c1ccc(OC)c(Nc2ncc(-c3ccccc3)o2)c1
3. CCOc1ccc2c(-c3ccnc(Nc4cccc(C(F)(F)F)c4)n3)cnn2n1

1.12%
0.18%
1.35%

###

Target: Ribosomal protein S6 kinase alpha-2 (Homo sapiens) (UniProt Q15349);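 also: reported value is the mean percent inhibition of RSK3, from the GSK PKIS screening panel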
Sequence (Q15349 whole entry): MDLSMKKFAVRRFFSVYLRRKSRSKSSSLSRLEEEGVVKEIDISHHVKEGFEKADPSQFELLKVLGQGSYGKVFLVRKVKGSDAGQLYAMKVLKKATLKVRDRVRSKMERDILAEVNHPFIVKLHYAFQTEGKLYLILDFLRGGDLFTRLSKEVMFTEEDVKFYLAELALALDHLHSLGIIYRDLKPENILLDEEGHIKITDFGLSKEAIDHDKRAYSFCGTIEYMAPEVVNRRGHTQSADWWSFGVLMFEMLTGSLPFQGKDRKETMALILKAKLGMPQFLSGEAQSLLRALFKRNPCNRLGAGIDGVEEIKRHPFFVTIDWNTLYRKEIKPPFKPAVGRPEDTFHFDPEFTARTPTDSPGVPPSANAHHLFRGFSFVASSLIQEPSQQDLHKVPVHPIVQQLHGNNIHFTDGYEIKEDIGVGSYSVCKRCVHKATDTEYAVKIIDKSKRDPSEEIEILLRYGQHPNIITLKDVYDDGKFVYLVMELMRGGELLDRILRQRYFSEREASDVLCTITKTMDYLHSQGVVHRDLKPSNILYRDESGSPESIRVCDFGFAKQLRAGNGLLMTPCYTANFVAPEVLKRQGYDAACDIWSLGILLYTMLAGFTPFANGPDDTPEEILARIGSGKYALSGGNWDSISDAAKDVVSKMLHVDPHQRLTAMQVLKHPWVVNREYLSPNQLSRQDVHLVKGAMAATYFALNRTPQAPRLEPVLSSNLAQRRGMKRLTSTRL
Conditions: at 0.1 µM
Kindly supply the reported inhibition values for the records listed here.
Numbers only, in %.

Examples from the recorded data:
N#Cc1c(NC(=O)CN2CCOCC2)sc2c1CCCC2 1.89
COC(=O)Nc1nc2ccc(Oc3ccc(NC(=O)Nc4cccc(Cl)c4)cc3)cc2[nH]1 0.54
COc1cc(Nc2nccc(Nc3ccc4c(C)n[nH]c4c3)n2)cc(OC)c1OC 0.87

Quick batch: inhibition for everything below.
1. COc1ccc2c(-c3ccnc(Nc4cccc(OC(F)(F)F)c4)n3)cnn2n1
2. COc1cccc(-n2ncc3c(N/N=C/c4ccc(F)cc4)ncnc32)c1
3. Fc1ccc(-c2nn3ccccc3c2-c2ccncc2)cc1
4. CCn1c(-c2nonc2N)nc2cnc(Oc3cccc(NC(=O)c4ccc(N(C)C)cc4)c3)cc21
5. CCCN(CCS(C)(=O)=O)Cc1ccc(-c2ccc3ncnc(Nc4ccc(OCc5cccc(F)c5)c(Cl)c4)c3c2)o1

1.43
0.94
0.67
17.4
1.59

Quick batch: inhibition for everything below.
1. Nc1ncc(-c2cccc(S(N)(=O)=O)c2)c2scc(-c3ccc(F)c(Cl)c3)c12
2. COc1cccc(-c2c[nH]c3c(N/N=C/c4ccncc4)ncnc23)c1

[3.17, 2.28]

###

Biological target: Serine/threonine-protein kinase 3 (Homo sapiens) (UniProt Q13188);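 also: reported value is the mean percent inhibition of MST2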
Conditions: at 0.1 µM
Kindly supply the reported inhibition values for the records listed here.
Numbers only, in %.

O=C(O[C@H]1CN[C@H](C#Cc2cc3ncnc(Nc4ccc(Cc5ccccc5)cc4)c3s2)C1)N1CCOCC1 3.94
CS(=O)(=O)CCNCc1coc(-c2ccc3ncnc(Nc4ccc(OCc5ccccc5)cc4)c3c2)c1 4.25
CN(C)CCOc1ccc(-c2nc(-c3ccncc3)c(-c3ccc4c(c3)CC/C4=N\O)[nH]2)cc1 4.63
COc1cc(/C=N/Nc2ncnc3[nH]ncc23)ccc1O 5.9
CCn1c(-c2nonc2N)nc2cnc(Oc3cccc(NC(=O)c4ccc(N(C)C)cc4)c3)cc21 0.98

Quick batch: inhibition for everything below.
1. COC(=O)Nc1nc2ccc(Oc3ccc(NC(=O)Nc4cccc(Cl)c4)cc3)cc2[nH]1
2. COc1ccc(-c2oc3ncnc(N)c3c2-c2ccc(NC(=O)Nc3cc(C(F)(F)F)ccc3F)cc2)cc1
3. CCOc1ccc2c(-c3ccnc(Nc4cccc(C(F)(F)F)c4)n3)cnn2n1
4. Fc1ccc(-c2nn3ncccc3c2-c2ccnc(Nc3ccc4c(c3)OCCO4)n2)cc1

1. 3.48
2. 12.7
3. 5.61
4. 3.68

###

Test system: Epidermal growth factor receptor (Homo sapiens), P00533 [L858R]
Sequence (P00533 whole entry L858R): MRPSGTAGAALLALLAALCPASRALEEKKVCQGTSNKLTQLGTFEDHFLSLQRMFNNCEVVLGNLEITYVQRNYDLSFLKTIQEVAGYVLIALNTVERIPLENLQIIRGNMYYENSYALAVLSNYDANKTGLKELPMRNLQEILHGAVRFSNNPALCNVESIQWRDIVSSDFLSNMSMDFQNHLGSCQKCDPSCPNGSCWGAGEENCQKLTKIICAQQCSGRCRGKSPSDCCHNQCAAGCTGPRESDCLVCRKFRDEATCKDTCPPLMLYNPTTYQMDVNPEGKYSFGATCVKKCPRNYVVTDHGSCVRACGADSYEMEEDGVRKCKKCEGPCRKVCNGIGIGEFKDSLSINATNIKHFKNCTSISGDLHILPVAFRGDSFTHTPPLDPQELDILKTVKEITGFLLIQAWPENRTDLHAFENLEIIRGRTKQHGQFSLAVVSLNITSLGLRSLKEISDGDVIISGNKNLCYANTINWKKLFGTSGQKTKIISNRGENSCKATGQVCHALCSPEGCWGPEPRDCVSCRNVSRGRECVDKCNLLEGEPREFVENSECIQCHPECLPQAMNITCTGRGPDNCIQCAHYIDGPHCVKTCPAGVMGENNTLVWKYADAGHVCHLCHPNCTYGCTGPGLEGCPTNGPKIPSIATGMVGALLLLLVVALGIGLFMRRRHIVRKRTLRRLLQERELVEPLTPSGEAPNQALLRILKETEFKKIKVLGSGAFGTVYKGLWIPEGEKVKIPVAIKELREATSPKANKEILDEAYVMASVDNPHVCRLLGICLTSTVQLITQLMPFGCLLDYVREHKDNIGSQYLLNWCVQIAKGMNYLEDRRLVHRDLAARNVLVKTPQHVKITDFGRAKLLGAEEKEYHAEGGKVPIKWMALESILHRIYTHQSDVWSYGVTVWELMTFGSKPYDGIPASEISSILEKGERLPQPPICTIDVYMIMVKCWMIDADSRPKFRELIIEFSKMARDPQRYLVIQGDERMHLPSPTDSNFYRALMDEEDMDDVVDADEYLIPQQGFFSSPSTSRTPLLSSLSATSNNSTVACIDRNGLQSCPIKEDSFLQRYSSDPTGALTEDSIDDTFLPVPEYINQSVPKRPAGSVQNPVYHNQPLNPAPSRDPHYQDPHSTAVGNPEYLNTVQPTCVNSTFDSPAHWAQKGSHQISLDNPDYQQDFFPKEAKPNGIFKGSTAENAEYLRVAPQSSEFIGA
Conditions: at 1 µM
quantity: inhibition (%)
Answers are plain numbers, in %.

Quick batch: inhibition for everything below.
1. CNC(=O)c1cc(-c2ccc(F)cc2)cc(-c2ccc(S(=O)(=O)N3CCCC3)cc2)c1N
2. CCOc1ccc2c(-c3ccnc(Nc4cccc(C(F)(F)F)c4)n3)cnn2n1

1. 5.35
2. -1.72

###

Kindly supply the reported inhibition values for the records listed here.
System: Leucine-rich repeat serine/threonine-protein kinase 2 (Homo sapiens), Q5S007 [G2019S]
Sequence (Q5S007 whole entry G2019S): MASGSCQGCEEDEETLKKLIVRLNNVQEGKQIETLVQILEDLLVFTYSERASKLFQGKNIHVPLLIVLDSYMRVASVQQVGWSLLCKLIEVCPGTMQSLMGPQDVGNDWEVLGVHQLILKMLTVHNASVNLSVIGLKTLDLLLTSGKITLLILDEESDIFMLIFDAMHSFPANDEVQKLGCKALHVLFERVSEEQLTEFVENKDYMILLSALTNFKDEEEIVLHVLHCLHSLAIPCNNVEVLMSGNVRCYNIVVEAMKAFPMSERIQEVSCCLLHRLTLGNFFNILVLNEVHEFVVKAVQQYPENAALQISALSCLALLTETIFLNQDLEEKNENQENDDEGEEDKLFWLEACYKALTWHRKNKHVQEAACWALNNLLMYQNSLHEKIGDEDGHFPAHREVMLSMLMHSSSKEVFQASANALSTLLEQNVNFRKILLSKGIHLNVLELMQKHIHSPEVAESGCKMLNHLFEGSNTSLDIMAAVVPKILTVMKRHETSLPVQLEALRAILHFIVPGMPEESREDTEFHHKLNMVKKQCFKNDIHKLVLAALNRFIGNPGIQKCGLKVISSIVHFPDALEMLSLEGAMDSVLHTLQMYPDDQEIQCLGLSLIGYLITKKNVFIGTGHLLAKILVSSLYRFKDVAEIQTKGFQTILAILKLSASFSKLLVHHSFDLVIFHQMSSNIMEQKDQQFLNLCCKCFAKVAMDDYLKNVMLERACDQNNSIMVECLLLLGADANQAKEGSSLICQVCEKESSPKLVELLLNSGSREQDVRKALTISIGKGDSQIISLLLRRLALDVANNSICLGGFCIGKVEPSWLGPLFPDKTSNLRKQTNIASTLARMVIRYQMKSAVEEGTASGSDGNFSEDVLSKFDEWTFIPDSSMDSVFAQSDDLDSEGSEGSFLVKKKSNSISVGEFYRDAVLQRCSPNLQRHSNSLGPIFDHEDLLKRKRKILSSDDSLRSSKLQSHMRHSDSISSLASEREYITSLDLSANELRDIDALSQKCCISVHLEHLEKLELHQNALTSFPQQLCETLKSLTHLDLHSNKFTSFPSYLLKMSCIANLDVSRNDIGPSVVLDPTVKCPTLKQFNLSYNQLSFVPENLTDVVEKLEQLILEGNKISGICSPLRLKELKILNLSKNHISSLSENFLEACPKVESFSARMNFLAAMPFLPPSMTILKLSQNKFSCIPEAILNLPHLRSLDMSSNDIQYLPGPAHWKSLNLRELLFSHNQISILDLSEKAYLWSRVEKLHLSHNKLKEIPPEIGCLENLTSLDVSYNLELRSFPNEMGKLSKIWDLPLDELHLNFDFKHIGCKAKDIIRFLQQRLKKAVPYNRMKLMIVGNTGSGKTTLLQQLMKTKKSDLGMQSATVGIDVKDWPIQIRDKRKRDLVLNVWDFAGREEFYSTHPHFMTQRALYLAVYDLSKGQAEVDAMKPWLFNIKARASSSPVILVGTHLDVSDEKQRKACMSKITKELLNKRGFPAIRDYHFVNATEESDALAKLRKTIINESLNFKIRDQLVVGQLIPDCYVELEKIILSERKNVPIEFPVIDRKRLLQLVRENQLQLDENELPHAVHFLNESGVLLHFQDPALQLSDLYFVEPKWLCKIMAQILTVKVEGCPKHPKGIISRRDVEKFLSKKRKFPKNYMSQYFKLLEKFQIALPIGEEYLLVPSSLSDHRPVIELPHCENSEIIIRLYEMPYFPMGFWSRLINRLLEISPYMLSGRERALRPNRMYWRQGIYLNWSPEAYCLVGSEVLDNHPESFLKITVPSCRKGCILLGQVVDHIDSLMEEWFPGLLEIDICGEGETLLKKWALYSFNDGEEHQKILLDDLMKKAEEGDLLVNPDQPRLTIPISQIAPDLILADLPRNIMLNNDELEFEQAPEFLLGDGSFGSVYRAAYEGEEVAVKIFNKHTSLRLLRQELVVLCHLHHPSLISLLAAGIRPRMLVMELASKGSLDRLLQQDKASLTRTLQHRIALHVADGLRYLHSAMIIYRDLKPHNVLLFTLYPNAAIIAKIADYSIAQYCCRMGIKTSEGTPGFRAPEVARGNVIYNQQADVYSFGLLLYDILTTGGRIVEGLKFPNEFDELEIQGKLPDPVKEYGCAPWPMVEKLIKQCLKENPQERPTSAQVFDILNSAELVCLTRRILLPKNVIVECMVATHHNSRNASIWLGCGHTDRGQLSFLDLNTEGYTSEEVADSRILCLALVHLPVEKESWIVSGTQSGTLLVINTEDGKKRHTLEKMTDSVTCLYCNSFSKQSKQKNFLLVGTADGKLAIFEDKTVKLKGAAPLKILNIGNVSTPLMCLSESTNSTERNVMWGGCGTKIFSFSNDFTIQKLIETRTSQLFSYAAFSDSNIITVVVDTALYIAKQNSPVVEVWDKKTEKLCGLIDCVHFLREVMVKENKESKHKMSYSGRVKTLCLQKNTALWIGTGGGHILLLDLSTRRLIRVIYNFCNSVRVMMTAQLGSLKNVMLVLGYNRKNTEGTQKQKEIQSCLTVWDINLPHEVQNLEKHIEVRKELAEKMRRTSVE
Settings: at 0.1 µM
Numbers only, in %.

NS(=O)(=O)c1ccc(N/N=C2\C(=O)Nc3ccc4ncccc4c32)cc1 40.4
Cc1cccc(Nc2ncc(-c3ccccc3)o2)c1 5.32
COc1cccc(-c2c[nH]c3c(N/N=C/c4ccncc4)ncnc23)c1 5.22
N#Cc1c(NC(=O)c2ccc(F)cc2)sc2c1CCCC2 1.92
CN1CCC(n2cnc(-c3ccc(F)cc3)c2-c2ccnc(N)n2)CC1 1.6
COc1cc(Nc2nccc(Nc3ccc4c(C)n[nH]c4c3)n2)cc(OC)c1OC 10.8
Nc1nc(-c2cccc(Cl)c2)c(-c2ccc3ncccc3n2)s1 6.96
c1ccc(COc2ccc(Nc3ncnc4ccc(-c5ccco5)cc34)cc2)cc1 3.97
CCn1c(-c2nonc2N)nc2c(C#CC(C)(C)O)ncc(OC3CCNCC3)c21 3.92
CNC(=O)c1cccc(C#Cc2cncnc2Nc2ccc(OCc3cccc(F)c3)c(Cl)c2)c1 -1.1

Quick batch: inhibition for everything below.
1. COC(=O)Nc1nc2ccc(S(=O)(=O)c3ccc(NC(=O)Nc4cc(C(F)(F)F)ccc4F)cc3)cc2[nH]1
2. CCCN1CCC(c2ccc(Nc3nc(Nc4cc(F)ccc4C(N)=O)c4cc[nH]c4n3)c(OC)c2)CC1
3. CCNC(=O)O[C@H]1CN[C@H](C#Cc2cc3ncnc(Nc4ccc(OCc5cccc(F)c5)c(Cl)c4)c3s2)C1

[2.36, 79.9, 2.44]

Quick batch: inhibition for everything below.
1. c1cc(-c2cnn3nc(N4CCOCC4)ccc23)nc(NC2CC2)n1
2. CC(C)(CO)CNC(=O)c1ccc2c(c1)/C(=N/Nc1ccc(S(N)(=O)=O)cc1)C(=O)N2
3. c1ccc(-c2nc3n(c2-c2ccc4c(c2)OCO4)CCC3)nc1
4. CN(C)CCOc1ccc(-c2nc(-c3ccncc3)c(-c3ccc4c(c3)CC/C4=N\O)[nH]2)cc1
5. CN1CCC(n2cnc(-c3ccc(F)cc3)c2-c2ccnc(Nc3ccccc3)n2)CC1

1. 6.59
2. 6.85
3. 2.25
4. 2.57
5. 1.22

###

Molecular target: Tyrosine-protein kinase ZAP-70 (Homo sapiens);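 also: values are mean percent inhibition of ZAP-70 kinase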
Sequence (whole entry): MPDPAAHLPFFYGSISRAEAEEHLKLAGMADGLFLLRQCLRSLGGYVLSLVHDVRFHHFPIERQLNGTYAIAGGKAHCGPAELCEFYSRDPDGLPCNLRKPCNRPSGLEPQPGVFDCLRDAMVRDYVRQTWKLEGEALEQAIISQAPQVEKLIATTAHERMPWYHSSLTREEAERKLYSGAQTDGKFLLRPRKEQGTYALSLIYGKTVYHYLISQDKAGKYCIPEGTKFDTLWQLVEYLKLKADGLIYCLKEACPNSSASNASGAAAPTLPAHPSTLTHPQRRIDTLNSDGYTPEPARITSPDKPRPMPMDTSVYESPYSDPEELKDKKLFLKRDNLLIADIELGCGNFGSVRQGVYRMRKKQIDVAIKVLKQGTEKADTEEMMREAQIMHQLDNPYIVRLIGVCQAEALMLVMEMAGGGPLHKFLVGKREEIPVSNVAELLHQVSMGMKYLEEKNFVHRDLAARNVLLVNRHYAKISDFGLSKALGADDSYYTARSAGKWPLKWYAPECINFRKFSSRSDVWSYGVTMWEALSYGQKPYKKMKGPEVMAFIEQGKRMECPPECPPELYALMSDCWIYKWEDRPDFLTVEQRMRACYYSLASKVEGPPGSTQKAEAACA
Conditions: at 0.1 µM
quantity: inhibition
Write your answer as a measured quantity: the number, then the unit.

Examples from the recorded data:
NC(=O)c1sc(-n2cnc3ccc(C(F)(F)F)cc32)cc1OCc1ccccc1Br 2.64%
CN(C)CCOc1ccc(-c2nc(-c3ccncc3)c(-c3ccc4c(c3)CC/C4=N\O)[nH]2)cc1 -1.98%
Fc1ccc(-c2cc(-c3c[nH]nc3-c3ccccn3)ccn2)cc1 2.71%
COC(=O)Nc1nc2ccc(Oc3ccc(NC(=O)Nc4cccc(Cl)c4)cc3)cc2[nH]1 0.78%
N#Cc1c(NC(=O)CN2CCOCC2)sc2c1CCCC2 1.13%

Quick batch: inhibition for everything below.
1. CCn1c(-c2nonc2N)nc2c(C#CC(C)(C)O)ncc(OC3CCNCC3)c21
2. CCNC(=O)O[C@H]1CN[C@H](C#Cc2cc3ncnc(Nc4ccc(OCc5cccc(F)c5)c(Cl)c4)c3s2)C1
3. CNC(=O)c1cc(-c2ccc(F)cc2)cc(-c2ccc(S(=O)(=O)N3CCCC3)cc2)c1N

["0.49%", "-3.39%", "-0.4%"]
